Assay: qHTS assay to identify small molecule antagonists of the estrogen receptor alpha (ER-alpha) signaling pathway using the BG1 cell line - cell viability counter screen (AID 743081);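 note: compound given together with 17beta-estradiol as the ER stimulus; nearly all actives have a fitted effect of over 45% in size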
Details: BG1Luc4E2 viability, CellTiter-Fluor, 22 h; series mostly up to 70.3 µM
Records with an inconclusive call do not appear. Active and inactive are the calls of the source. Calls come from the whole dose curve; as a rule, active = well fitted cell-killing curve with a large enough effect in the repeat runs; inconclusive = weak or mixed curves, or effect the other way; inactive = flat fitted curve, though single readings scatter.
Respond only with the outcome that fits, drawn from active, inactive

1) O=C1CCCc2c1cc1ccc3cccc4ccc2c1c34 ... inactive

Enquiry: Assay outcome for CC(C)(C)C(=O)OCOC(=O)C1N2C(=O)CC2S(=O)(=O)C1(C)C (configuration not stated) : what was it?
Return: inactive

----------
Experiment: A CellTox Green Cytotoxicity Assay to monitor cytotoxicity in HEK293 cells - 24 hour (AID 1224875); note: nearly all actives have a fitted effect of over 45% in size
Conditions: CellTox Green fluorescence; series mostly up to 76.8 µM
Results filed as inconclusive are left out. Calls of active or inactive are those of the source. Calls follow the shape of the dose curve; as a rule, active = well fitted activation curve with a large enough effect in the repeat runs; inconclusive = weak or mixed curves; inactive = flat fitted curve, though single readings scatter.
Respond only with the outcome that fits, drawn from active, inactive

1) Cc1cc(=O)oc2cc(N(C)C)ccc12 ... inactive
2) CCCCCCCCCCC=O ... inactive
3) COc1ccc(-c2ccc3cc(C(=O)O)ccc3c2)cc1C12CC3CC(CC(C3)C1)C2 ... inactive
4) C[n+]1ccn(Cc2ccccc2)c1 ... inactive
5) CCOC(=O)O[C@]1(C(=O)OCCl)CC[C@H]2[C@@H]3CCC4=CC(=O)C=C[C@]4(C)[C@H]3[C@@H](O)C[C@@]21C ... inactive

Enquiry: Assay outcome for Cc1ccc(O)c2ncccc12 : what was it?
Return: inactive

----------
Test: qHTS assay to identify small molecule agonists of the farnesoid-X-receptor (FXR) signaling pathway - cell viability counter screen (AID 743218); note: nearly all actives have a fitted effect of over 45% in size
Settings: FXR-bla HEK293T viability, CellTiter-Glo luminescence, 16 h; series mostly up to 62.6 µM
Records with an inconclusive call do not appear. Activity calls are given as the source filed them. Calls follow the shape of the dose curve; as a rule, active = well fitted cell-killing curve with a large enough effect in the repeat runs; inconclusive = weak or mixed curves, or effect the other way; inactive = no such curve, though single readings can be large or run the other way.
Respond only with the outcome that fits, drawn from class 1 (active), class 0 (inactive)

Answered cases to consult:
1) CCCCCCCC[P+](CCCCCCCC)(CCCCCCCC)CCCCCCCC ... class 1
2) CCN(C(=O)c1cc(C)cc(OC[C@H](C)Nc2ccncc2)c1)C(C)C ... class 0
3) CCCCN1CCCC[C@H]1C(=O)Nc1c(C)cccc1C ... class 0
4) CN(C)[C@@H]1C(=O)C(C(N)=O)=C(O)[C@@]2(O)C(=O)C3=C(O)c4c(O)ccc(Cl)c4[C@@H](O)[C@H]3C[C@@H]12 ... class 0
5) Cc1cccc(S(=O)(=O)O)c1C ... class 0
6) Cc1onc(-c2ccccc2Cl)c1C(=O)N[C@@H]1C(=O)N2[C@@H]1SC(C)(C)[C@@H]2C(=O)O ... class 0
7) CCCCCCCCOc1ccccc1C(=O)Nc1ccc(C(=O)OCC[N+](C)(CC)CC)cc1 ... class 0
8) C[n+]1ccn(Cc2ccccc2)c1 ... class 0
9) CC(C)(C)c1ccc(C(=O)CCCN2CCC(OC(c3ccccc3)c3ccccc3)CC2)cc1 ... class 1
10) NNc1nc(-c2ccccc2)cs1 ... class 1

Enquiry: Assay outcome for CCCCCCCCCCCC[N+](C)(C)CCCCCCCCCCCC : what was it?
Return: class 1

----------
Molecular target: Estrogen receptor (Homo sapiens)
Experiment: qHTS assay to identify small molecule agonists of the estrogen receptor alpha (ER-alpha) signaling pathway (AID 743075);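 note: HEK293 GripTite cells with ER-alpha and UAS-driven beta-lactamase reporter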; note: potency is the fitted concentration of half-maximal effect
Conditions: HEK293 ER-alpha-UAS-bla, beta-lactamase FRET ratio, 18 h
Activity calls are given as the source filed them. The call rests on the fitted dose curve.
readout-label: Potency

1. CSc1ccc(C(=O)c2[nH]c(=O)[nH]c2C)cc1 ... inactive
2. CCC(N)(CO)CO ... inactive
3. CSc1ccc(/C=C2/C(C)=C(CC(=O)O)c3cc(F)ccc32)cc1 ... inactive
4. CCCCCCC[N+](CC)(CC)CCCCc1ccc(Cl)cc1 ... inactive
5. CCCCCCCCCCCCCCCS(=O)(=O)Oc1ccccc1 ... inactive
6. C[n+]1ccn(Cc2ccccc2)c1 ... inactive
7. NC(=O)N1C(=O)C(C(=O)c2cc(Cl)cs2)c2cc(F)c(Cl)cc21 (configuration not stated) ... inactive
8. Cc1onc(-c2ccccc2Cl)c1C(=O)N[C@@H]1C(=O)N2[C@@H]1SC(C)(C)[C@@H]2C(=O)O ... inactive
9. CC1=NC(C)OC1C (configuration not stated) ... inactive
10. O=C1Cc2cc(CCN3CCN(c4nsc5ccccc45)CC3)c(Cl)cc2N1 ... inactive

Go through the items and report each one's Potency.
1. OCc1c[nH]c2ccccc12
2. O=S1(=O)CC(Cl)(Cl)C(Cl)(Cl)C1

Return:
4.36 µM [fluorescent] (active)
12.3 µM [inconclusive] (active)
